Entry source: patent US6608086B2

Molecular target: α2C receptor (Homo sapiens)
Construct: host or cells: LM(tk-) cells, line L-α2C
Sequence (P18825 1-462): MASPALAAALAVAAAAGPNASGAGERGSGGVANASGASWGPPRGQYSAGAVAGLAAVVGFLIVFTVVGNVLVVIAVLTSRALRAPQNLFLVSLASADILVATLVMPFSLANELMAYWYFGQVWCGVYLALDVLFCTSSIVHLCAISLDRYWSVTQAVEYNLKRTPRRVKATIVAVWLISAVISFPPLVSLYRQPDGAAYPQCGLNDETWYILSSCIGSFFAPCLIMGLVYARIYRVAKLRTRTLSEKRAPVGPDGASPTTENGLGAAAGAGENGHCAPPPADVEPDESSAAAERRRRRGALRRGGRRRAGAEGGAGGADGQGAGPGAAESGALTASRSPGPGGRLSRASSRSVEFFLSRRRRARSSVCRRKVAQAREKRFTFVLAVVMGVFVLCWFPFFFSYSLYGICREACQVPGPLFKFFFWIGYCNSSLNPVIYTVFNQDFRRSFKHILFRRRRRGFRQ
Assay: Competition binding, [3H]rauwolscine, human α2C receptor
Conditions: [3H]rauwolscine, human receptor, LM(tk-) cell lysates; mean; read-out: PKi alpha-2 2c (converted)
Binning rule for recorded Ki: low: < 600 nM; medium: ≥ 600 nM and < 1000 nM; high: ≥ 1000 nM

Sample answers from the record:
INSERT INTO assay_data (compound, category_label) VALUES
  ('COC(=O)C1(c2ccccc2)CCN(CCCNC(=O)C2=C(CCCCN)NC(C)=C(C(C)=O)C2c2ccc([N+](=O)[O-])cc2)CC1 (stereo not drawn)', 'low'),
  ('CCOC(=O)C1(c2ccccc2)CCN(CCCNC(=O)C2=C(COCCN)NC(CC)=C(C(=O)O)C2c2ccc([N+](=O)[O-])cc2)CC1 (stereo not drawn)', 'high'),
  ('CCOC(=O)C1(c2ccccc2)CCN(CCCNC(=O)C2=C(C)NC(C)=C(C(C)=O)C2c2ccc([N+](=O)[O-])cc2)CC1 (racemic)', 'high'),
  ('COC(=O)C1(c2ccccc2)CCN(CCCNC(=O)C2=C(COCCN=[N+]=[N-])NC(C)=C(C(N)=O)C2c2ccc([N+](=O)[O-])cc2)CC1 (stereo not drawn)', 'low'),
  ('CCC1=C(C(=O)NC)C(c2ccc([N+](=O)[O-])cc2)C(C(=O)NCCCN2CCC(C(=O)OC)(c3ccccc3)CC2)=C(CCCCOC)N1 (stereo not drawn)', 'medium'),
  ('CCC1=C(C(=O)NC)C(c2ccc([N+](=O)[O-])cc2)C(C(=O)NCCCN2CCC(c3ccccc3)(c3ccccc3)CC2)=C(CCCCOC)N1 (stereo not drawn)', 'high');

Input CC(=O)C1=C(C)NC(COCCN)=C(C(=O)NCCCN2CCC(c3ccccc3)(c3ccccc3)CC2)C1c1ccc([N+](=O)[O-])cc1 (stereo not drawn) ; output its category low

Which class does CCOC(=O)C1(c2ccccc2)CCN(CCCNC(=O)C2=C(COCCN)NC(CC)=C(C(N)=O)C2c2ccc([N+](=O)[O-])cc2)CC1 (stereo not drawn) fall in? medium

Determine which band this compound sits in: CC(=O)C1=C(C)NC(CCCCN)=C(C(=O)NCCCN2CCC(c3ccccc3)(c3ccccc3)CC2)C1c1ccc([N+](=O)[O-])cc1 (stereo not drawn) medium

Could you place COC(=O)C1(c2ccccc2)CCN(CCCNC(=O)C2=C(C)NC(C)=C(C(=O)O)C2c2ccc([N+](=O)[O-])cc2)CC1 (stereo not drawn) in its proper category? Many thanks. high

Which category does the recorded Ki put COC(=O)C1(c2ccccc2)CCN(CCCNC(=O)C2=C(C)NC(C)=C(C(C)=O)C2c2ccc([N+](=O)[O-])cc2)CC1 (stereo not drawn) in? high

###

Biological target: α2B receptor (Homo sapiens, UniProt P18089)
Construct: host or cells: LM(tk-) cells, line L-NGC-α2B
Sequence (P18089 1-450): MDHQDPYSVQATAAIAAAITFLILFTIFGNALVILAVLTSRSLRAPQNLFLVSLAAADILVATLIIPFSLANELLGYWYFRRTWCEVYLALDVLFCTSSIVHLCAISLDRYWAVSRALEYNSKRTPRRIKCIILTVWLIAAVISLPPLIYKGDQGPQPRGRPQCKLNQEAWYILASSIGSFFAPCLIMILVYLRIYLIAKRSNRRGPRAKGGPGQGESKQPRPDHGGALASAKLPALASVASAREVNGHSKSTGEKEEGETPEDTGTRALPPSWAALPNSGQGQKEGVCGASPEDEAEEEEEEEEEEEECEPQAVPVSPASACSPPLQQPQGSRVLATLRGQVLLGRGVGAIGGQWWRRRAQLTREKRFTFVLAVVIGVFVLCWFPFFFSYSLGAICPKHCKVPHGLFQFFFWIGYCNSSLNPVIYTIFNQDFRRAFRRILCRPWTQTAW
Experiment: Competition binding, [3H]rauwolscine, human α2B receptor
Conditions: [3H]rauwolscine, LM(tk-) cell line L-NGC-α2B; SEM and n in lines below; read-out: pKi alpha-2 2b (converted)
Counter-ions that a name gives are not always drawn.
Ki overview
Unit nM implied. Number only.

Below, 5 compounds whose answers are already recorded.
INSERT INTO measurements (compound, quantitative_readout) VALUES
  ('COC(=O)C1=C(C)NC(C)=C(C(=O)NCCCN2CCC(c3ccccc3)CC2)C1c1cccc([N+](=O)[O-])c1 (stereo not drawn)', 234),
  ('COc1cc2c(cc1OC)CN(CCCNC(=O)C1=C(C)NC(C)=C(C(N)=O)C1c1ccc([N+](=O)[O-])cc1)CC2 (stereo not drawn) [Example 58, hydrochloride]', 1450),
  ('COC(=O)C1=C(C)NC(C)=C(C(=O)OCCCN2CCC(c3ccccc3)CC2)C1c1ccc([N+](=O)[O-])cc1 (stereo not drawn) [Example 48, hydrochloride hydrate]', 813),
  ('COC(=O)C1=C(C)NC(c2ccoc2)=C(C(=O)NCCCN2CCC(c3ccccc3)CC2)C1c1ccc([N+](=O)[O-])cc1 (stereo not drawn) [Example 65, hydrochloride hydrate]', 97.7),
  ('COC(=O)C1=C(C)NC(C)=C(C(=O)OCCCN2CCCCC2)C1c1ccc([N+](=O)[O-])cc1 (stereo not drawn)', 2750);

// Ki lookup, key: CC1=C(C(N)=O)C(c2ccc([N+](=O)[O-])cc2)C(C(=O)NCCCN2CCC(c3ccccc3)CC2)=C(C)N1 (stereo not drawn) 69.2

###

// Ki lookup, one value per entry
Molecular target: L-type calcium channel (Rattus norvegicus)
Construct: membrane fragments of rat cardiac muscle; from tissue; host or cells: rat cardiac muscle membranes
Sequence (P22002 whole entry, other chains not shown, the tested form may be a part): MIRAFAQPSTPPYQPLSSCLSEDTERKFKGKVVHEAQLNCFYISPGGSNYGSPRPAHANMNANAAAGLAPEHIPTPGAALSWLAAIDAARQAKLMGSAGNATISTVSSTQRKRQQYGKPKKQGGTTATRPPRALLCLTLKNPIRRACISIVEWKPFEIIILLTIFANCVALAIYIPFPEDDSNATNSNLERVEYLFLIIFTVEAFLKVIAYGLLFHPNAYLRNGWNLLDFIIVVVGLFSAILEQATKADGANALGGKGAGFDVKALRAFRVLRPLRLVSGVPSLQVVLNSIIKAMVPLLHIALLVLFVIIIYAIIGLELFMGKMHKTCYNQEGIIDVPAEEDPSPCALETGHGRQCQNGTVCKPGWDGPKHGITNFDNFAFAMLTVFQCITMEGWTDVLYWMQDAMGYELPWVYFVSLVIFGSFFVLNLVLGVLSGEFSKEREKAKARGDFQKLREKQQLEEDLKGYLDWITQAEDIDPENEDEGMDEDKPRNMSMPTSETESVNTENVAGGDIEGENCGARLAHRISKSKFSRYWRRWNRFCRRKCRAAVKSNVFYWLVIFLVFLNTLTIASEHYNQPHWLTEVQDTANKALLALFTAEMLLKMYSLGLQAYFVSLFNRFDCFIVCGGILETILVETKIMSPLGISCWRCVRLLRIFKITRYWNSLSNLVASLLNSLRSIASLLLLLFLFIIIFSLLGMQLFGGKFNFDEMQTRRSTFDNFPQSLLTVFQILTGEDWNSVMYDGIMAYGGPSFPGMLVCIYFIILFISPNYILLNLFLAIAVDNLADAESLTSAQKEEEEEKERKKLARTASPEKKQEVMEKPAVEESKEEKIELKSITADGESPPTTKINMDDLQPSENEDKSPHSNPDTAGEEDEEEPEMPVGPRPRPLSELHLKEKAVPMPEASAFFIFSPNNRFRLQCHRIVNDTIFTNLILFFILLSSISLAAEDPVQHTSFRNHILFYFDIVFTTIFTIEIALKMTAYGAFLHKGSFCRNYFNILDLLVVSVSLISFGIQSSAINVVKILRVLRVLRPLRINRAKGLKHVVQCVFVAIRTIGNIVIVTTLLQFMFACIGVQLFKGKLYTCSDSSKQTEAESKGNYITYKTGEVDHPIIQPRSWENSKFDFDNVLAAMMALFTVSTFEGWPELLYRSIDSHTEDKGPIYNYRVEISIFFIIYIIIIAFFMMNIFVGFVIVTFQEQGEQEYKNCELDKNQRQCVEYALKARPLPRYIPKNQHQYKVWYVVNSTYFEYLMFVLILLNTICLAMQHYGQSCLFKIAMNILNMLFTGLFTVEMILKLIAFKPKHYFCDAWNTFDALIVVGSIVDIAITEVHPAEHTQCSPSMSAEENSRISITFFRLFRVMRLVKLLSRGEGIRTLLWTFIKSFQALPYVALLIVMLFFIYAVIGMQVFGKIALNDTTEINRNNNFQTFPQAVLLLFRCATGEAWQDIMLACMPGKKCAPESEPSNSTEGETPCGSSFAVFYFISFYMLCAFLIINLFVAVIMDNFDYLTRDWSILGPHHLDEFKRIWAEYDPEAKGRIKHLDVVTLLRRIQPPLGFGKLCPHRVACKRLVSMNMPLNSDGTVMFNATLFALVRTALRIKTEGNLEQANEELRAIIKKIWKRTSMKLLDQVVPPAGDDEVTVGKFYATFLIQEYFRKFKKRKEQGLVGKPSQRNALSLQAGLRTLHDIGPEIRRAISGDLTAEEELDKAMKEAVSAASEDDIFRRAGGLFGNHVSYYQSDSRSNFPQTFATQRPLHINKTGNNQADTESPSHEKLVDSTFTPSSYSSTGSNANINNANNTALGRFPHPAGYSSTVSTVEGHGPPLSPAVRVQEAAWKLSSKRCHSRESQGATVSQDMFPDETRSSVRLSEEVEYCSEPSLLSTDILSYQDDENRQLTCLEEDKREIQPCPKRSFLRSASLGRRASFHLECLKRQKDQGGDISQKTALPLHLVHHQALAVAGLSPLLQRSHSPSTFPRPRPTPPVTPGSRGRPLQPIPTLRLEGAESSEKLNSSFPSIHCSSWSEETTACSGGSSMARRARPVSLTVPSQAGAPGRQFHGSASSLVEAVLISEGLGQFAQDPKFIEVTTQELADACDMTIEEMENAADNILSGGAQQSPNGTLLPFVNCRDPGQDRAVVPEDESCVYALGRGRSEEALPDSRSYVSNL
Sequence (P54290 25-944 partner limits assumed, other chains not shown): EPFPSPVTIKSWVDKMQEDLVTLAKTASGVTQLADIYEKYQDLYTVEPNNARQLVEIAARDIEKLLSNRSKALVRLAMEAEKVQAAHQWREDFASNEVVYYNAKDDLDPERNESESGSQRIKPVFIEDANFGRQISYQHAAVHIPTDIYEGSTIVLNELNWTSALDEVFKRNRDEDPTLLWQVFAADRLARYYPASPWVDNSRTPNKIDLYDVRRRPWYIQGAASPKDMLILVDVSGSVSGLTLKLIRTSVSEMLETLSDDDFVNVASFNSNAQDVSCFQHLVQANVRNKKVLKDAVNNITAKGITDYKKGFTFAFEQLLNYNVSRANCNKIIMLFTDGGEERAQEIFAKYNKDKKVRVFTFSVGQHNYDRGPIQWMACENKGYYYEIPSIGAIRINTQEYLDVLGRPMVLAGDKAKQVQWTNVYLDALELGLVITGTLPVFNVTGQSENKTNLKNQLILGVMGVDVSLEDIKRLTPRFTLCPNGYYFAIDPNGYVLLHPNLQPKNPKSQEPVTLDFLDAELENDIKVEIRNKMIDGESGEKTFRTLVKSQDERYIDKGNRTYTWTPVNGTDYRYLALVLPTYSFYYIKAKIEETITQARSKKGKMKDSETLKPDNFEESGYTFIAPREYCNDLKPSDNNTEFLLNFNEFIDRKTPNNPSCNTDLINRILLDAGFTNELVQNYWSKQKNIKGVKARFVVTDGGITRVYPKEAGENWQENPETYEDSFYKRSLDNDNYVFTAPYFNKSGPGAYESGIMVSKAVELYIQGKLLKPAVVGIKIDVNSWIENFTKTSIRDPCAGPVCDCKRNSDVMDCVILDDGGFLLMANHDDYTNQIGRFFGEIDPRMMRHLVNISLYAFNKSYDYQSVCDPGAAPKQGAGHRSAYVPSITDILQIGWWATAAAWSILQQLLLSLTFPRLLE
Sequence (P54290 945-1091 partner limits assumed, other chains not shown): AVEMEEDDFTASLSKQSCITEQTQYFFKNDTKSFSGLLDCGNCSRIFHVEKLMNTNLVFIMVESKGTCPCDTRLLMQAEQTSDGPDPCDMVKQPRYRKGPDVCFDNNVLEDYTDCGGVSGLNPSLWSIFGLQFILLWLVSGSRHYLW
Assay: Competition binding of [3H]nitrendipine to membrane fragments of rat cardiac muscle
Conditions: [3H]nitrendipine, rat cardiac muscle membrane fragments, L-type calcium channel; read-out: pKi Ca (converted)
Structures can show the parent of a compound that is named as a salt.
Give the number; µM is assumed, so skip it.

INSERT INTO measurements (compound, measurement_unit, quantitative_readout) VALUES
  ('CC1=C(C(=O)NCCCN2CCC(c3ccccc3)(c3ccccc3)CC2)C(c2ccc([N+](=O)[O-])cc2)C(C(=O)OCCC#N)=C(C)N1 (stereo not drawn)', 'µM', 15.5),
  ('COc1cccc(C2C(C(N)=O)=C(C)NC(C)=C2C(=O)NCCCN2CCC(c3ccccc3)(c3ccccc3)CC2)c1 (stereo not drawn)', 'µM', 1000),
  ('CCC1=C(C(N)=O)C(c2ccc([N+](=O)[O-])cc2)C(C(=O)NCCCN2CCC(C#N)(c3ccccc3)CC2)=C(CC)N1 (racemic) [(±)-102, hydrochloride hydrate]', 'µM', 72.4);

Find the recorded Ki belonging to CCNC(=O)C1=C(CC)NC(CC)=C(C(=O)NCCCN2CCC(c3ccccc3)(c3ccccc3)CC2)C1c1ccc([N+](=O)[O-])cc1 (stereo not drawn) and report it. 100

Given the compound CCC1=C(C(N)=O)C(c2ccc([N+](=O)[O-])cc2)C(C(=O)NCCCN2CCC(C)(c3ccccc3)CC2)=C(CC)N1 (stereo not drawn) [Example 106, hydrochloride hydrate] , what is its reported Ki? 1000

Consider the compound CCC1=C(C(N)=O)C(c2ccc([N+](=O)[O-])cc2)C(C(=O)NCCCN2CCC(C#N)(c3ccccc3)CC2)=C(CC)N1 (single isomer, unassigned; (+)) [(+)-102] and give its measured Ki. 1000

Reported Ki, compound CCC1=C(C(N)=O)C(c2ccc(S(C)(=O)=O)cc2)C(C(=O)NCCCN2CCC(c3ccccc3)(c3ccccc3)CC2)=C(C)N1 (stereo not drawn) : ____ 1000

What value of measured Ki is listed for CC1=C(C(N)=O)C(c2ccc(S(C)(=O)=O)cc2)C(C(=O)NCCCN2CCC(c3ccccc3)(c3ccccc3)CC2)=C(C)N1 (stereo not drawn) ? 1000

# get_value(readout='Ki', item= CNC(=O)C1=C(C)NC(C)=C(C(=O)NCCCN2CCC(O)(c3ccccc3)CC2)C1c1ccc([N+](=O)[O-])cc1 (stereo not drawn) ) 50.1

Ki lookup needed for CCC1=C(C(N)=O)C(c2ccc([N+](=O)[O-])cc2)C(C(=O)NCCCN2CCC(c3ccccc3)(c3ccccc3)CC2)=C(CC)N1 (stereo not drawn) , thanks. 1000

Bench note: what Ki did CCNC(=O)C1=C(C)NC(C)=C(C(=O)NCCCN2CCC(c3ccccc3)(c3ccccc3)CC2)C1c1ccc([N+](=O)[O-])cc1 (stereo not drawn) show? 100

Fill in the blank: the reported Ki of CCC1=C(C(=O)NCCCN2CCC(c3ccccc3)(c3ccccc3)CC2)C(c2ccc([N+](=O)[O-])cc2)C(C(=O)NC(C)C)=C(CC)N1 (stereo not drawn) is ____. 79.4
